# Tested on: ovolysozyme
# assay_comment: AGE formation inhibitory action (lysozyme dimer formation with xylose, SDS-PAGE, silver staining)
# Type: biochemical
# applied_conditions: 1 mg/ml ovolysozyme, 100 mM xylose, pH 7.4, 37° C., 21 days; dimer (28.8 Kda) formation relative to control
result_type: IC50 (AGE formation inhibitory action, 50% inhibitory concentration) (µg/mL)

N=C(N)NN [Amionoguanidine, aminoguanidine, reference compound] | 30

P = COc1cccc2c1OCC(CNCC(O)c1ccc(O)c(O)c1)=C2 (stereo not shown) [Compound 15]
Q = Oc1cccc(C(O)CNCC2=Cc3ccccc3OC2)c1 (stereo not shown) [Compound 6]
R = COc1cc(C(O)CNCC2=Cc3ccccc3OC2)cc(OC)c1O (stereo not shown) [Compound 9]
Your job: order these 3 records by IC50 (AGE formation inhibitory action, 50% inhibitory concentration), ascending. Output spec: a listing of the labels in the requested order.
P, Q, R
(P: 3 µg/mL, Q: 10 µg/mL, R: 30 µg/mL)

Values from patent US6124347A
